Target: T1, recombinant HA of full length H3 (A/Aichi/2/1968, full length) (Influenza A virus H3N2 A/Aichi/2/1968 …, UniProt P03437 17-530)
T1 construct: domain: full length; also called H3N2 A/Aichi/2/1968 Full length; full-length H3 HA protein
Test: ELISA; antigen coated 1 µg/ml; recombinant antibody
Set-up: concentration or dose not given beside the values
Can you tell me OD 450 nm for the items I'm about to list?
Output spec: scalar in OD 450 nm, unitless text.

response.value for AT10-004 (antibody, V domains shown) VH: QVQLVQSGAEVRKPGASVKVSCKASGYTFTRHGISWVRQAPGQGLEWMGWISAYTGDTDYAQKFQGRVTMTTDTSTNTAYMELRSLRSDDAAVYYCARLRLQGEVVVPPSQSNWFDPWGQGTLVTVSS VL: EIVLTQSPATLSLYPGERATLSCRASQSVSRYLAWYQQKPGQAPRLLIYDASNRATGIPARFSGSGSGTDFTLTISSLEPEDFAVYYCQQRSNWLKITFGQGTRLEIKG (field: OD 450 nm) = 0.491

response.value for AT10-001 (antibody, V domains shown) VH: EVQLLESGGGLVQPGGSLRLSCAASGFSFSTYAMSWVRQAPGKGLEWVSGISGSGESTYYADSVKGRFTVSRDNSKNTLYLQMNSLRAEDTAVYYCAKQGDHIAWLLRGINFDYWGQGVLVTVSS VL: EIVLTQSPGTLSLSPGERATLSCRASQSVSSSYLAWYQQKPGQAPRLLIYGASTRATGIPDRFSGRGSGTDFTLTISSLEPEDFAVYYCQNYGSPFLFTFGPGTKVDIKR (field: OD 450 nm) = 0.953

response.value for AT10-002 (antibody, V domains shown) VH: QLQLQESGPRLVKPSETLSLTCSVSGVSISSSNYYWGWIRQPPGKGLEWIGTIYHSGSTYYNPSLKSRLIISVDTSKNQFYLQLTSLTAADSAVYYCATGGGFGWSQTYFGYWGQGTLVTASS VL: QSALTQPASVSGSPGQSITISCTGTSSDVGAYNYVSWYQHHPGKAPKLMIYDVTYRPSGVSTRFSGSKSGNTASLTISGLQAEDEADYYCSSQSRSSTLVIFGGGTKLTVLG (field: OD 450 nm) = 0.92

response.value for AT10-003 (antibody, V domains shown) VH: QVHLVQSGAEVRKPGASVKVSCKVSGYTLNELSIHWLRQAPGRGLEWMGSFDPEDGETIYAQKFQGRVTMTGDTSTDTAYLELTSLRSEDTALYYCARGWGAVTSPFDFWGQGTLVTVSS VL: DIVMTQSPLSLPVTPGEPASISCRSSQSLLHSNGHIYFDWYLQKPGQSPQLLIYLVSKRASGVPDRFSGSGSGTDFTLKISRVEAEDVGVYYCMQALETPFTFGPGTKVHIKR (field: OD 450 nm) = 1.32
